testDescription: Aqueous phase solubility as a function of pH / medium
Format: physicochemical
conditionsUsed: aqueous buffer; Phosphate buffer pH = 5.5
parameter: solubility (mg/mL)
Write down the numeric answer in mg/mL and omit the unit.

Asked: Returns the measured solubility for the input compound. Input: CC(C)(Oc1ccc(C(=O)c2ccc(Cl)cc2)cc1)C(=O)O [fenofibric acid]
Given back: 0.33
